Recorded values, source ChEMBL document CHEMBL5543084.

Tested on: Klebsiella pneumoniae
Assay: Antibacterial activity against Klebsiella pneumoniae ATCC 10031 assessed as inhibition of bacterial growth incubated for 24 hrs by broth dilution method
Format: functional
Attribute measured: MIC (µg/mL)

INSERT INTO assay_data (smiles_representation, attribute_measured, unit_text, operator_symbol, observed_measurement) VALUES
  ('C=C(C)[C@@H]1CCC(C)=C[C@H]1c1c(OCCCCI)cc(CCCCC)cc1OCCCCI', 'MIC', 'µg/mL', '>', 50),
  ('C=C(C)[C@@H]1CCC(C)=C[C@H]1c1c(OCCCCN(C)CCCN(C)CCCNC)cc(CCCCC)cc1OCCCCN(C)CCCN(C)CCCNC', 'MIC', 'µg/mL', '=', 6.25),
  ('C=C(C)[C@@H]1CCC(C)=C[C@H]1c1c(OCC(=O)O)cc(CCCCC)cc1OCC(=O)O', 'MIC', 'µg/mL', '>', 50),
  ('C=C(C)[C@@H]1CCC(C)=C[C@H]1c1c(OCCCCCCCCCCNC(=N)N)cc(CCCCC)cc1OCCCCCCCCCCNC(=N)N', 'MIC', 'µg/mL', '>', 50),
  ('C=C(C)[C@@H]1CCC(C)=C[C@H]1c1c(OCCCCN)cc(CCCCC)cc1OCCCCN', 'MIC', 'µg/mL', '=', 6.25),
  ('C=C(C)[C@@H]1CCC(C)=C[C@H]1c1c(OCC(=O)N[C@@H](CCCNC(=N)N)C(=O)N[C@@H](CCCNC(=N)N)C(=O)OC)cc(CCCCC)cc1OCC(=O)N[C@@H](CCCNC(=N)N)C(=O)N[C@@H](CCCNC(=N)N)C(=O)OC', 'MIC', 'µg/mL', '=', 50),
  ('C=C(C)[C@@H]1CCC(C)=C[C@H]1c1c(OCCCCN(C)CCCNC)cc(CCCCC)cc1OCCCCN(C)CCCNC', 'MIC', 'µg/mL', '=', 1.56);

----------
System: Klebsiella pneumoniae
Assay: Antibacterial activity against Klebsiella pneumoniae ATCC 10031 assessed as inhibition of bacterial growth incubated for 24 hrs by broth dilution method
Assay type: functional
Attribute measured: MIC (µg/mL)

INSERT INTO measurements (smiles_representation, operator_symbol, observed_measurement) VALUES
  ('C=C(C)[C@@H]1CCC(C)=C[C@H]1c1c(OCC(=O)OCC)cc(CCCCC)cc1OCC(=O)OCC', '>', 50),
  ('C=C(C)[C@@H]1CCC(C)=C[C@H]1c1c(OCC(=O)N[C@@H](CCCNC(=N)N)C(=O)OC)cc(CCCCC)cc1OCC(=O)N[C@@H](CCCNC(=N)N)C(=O)OC', '=', 25),
  ('C=C(C)[C@@H]1CCC(C)=C[C@H]1c1c(OCCCCCCCCCCBr)cc(CCCCC)cc1OCCCCCCCCCCBr', '>', 50),
  ('C=C(C)[C@@H]1CCC(C)=C[C@H]1c1c(OCCCN)cc(CCCCC)cc1OCCCN', '=', 6.25),
  ('C=C(C)[C@@H]1CCC(C)=C[C@H]1c1c(OCC(=O)N[C@@H](CCCNC(=N)N)C(N)=O)cc(CCCCC)cc1OCC(=O)N[C@@H](CCCNC(=N)N)C(N)=O', '>', 50),
  ('C=C(C)[C@@H]1CCC(C)=C[C@H]1c1c(OCCCCCCCCCCN)cc(CCCCC)cc1OCCCCCCCCCCN', '>', 50),
  ('C=C(C)[C@@H]1CCC(C)=C[C@H]1c1c(OCCCCCNC(=N)N)cc(CCCCC)cc1OCCCCCNC(=N)N', '=', 1.56),
  ('C=C(C)[C@@H]1CCC(C)=C[C@H]1c1c(OCCCCCCNC(=N)N)cc(CCCCC)cc1OCCCCCCNC(=N)N', '=', 25),
  ('C=C(C)[C@@H]1CCC(C)=C[C@H]1c1c(OCCCCCCN)cc(CCCCC)cc1OCCCCCCN', '=', 1.56),
  ('C=C(C)[C@@H]1CCC(C)=C[C@H]1c1c(OCCCNC(=N)N)cc(CCCCC)cc1OCCCNC(=N)N', '=', 1.56),
  ('C=C(C)[C@@H]1CCC(C)=C[C@H]1c1c(OCC(=O)N[C@@H](CCCCN)C(=O)OC)cc(CCCCC)cc1OCC(=O)N[C@@H](CCCCN)C(=O)OC', '=', 50),
  ('C=C(C)[C@@H]1CCC(C)=C[C@H]1c1c(OCCCCNCCC)cc(CCCCC)cc1OCCCCNCCC', '=', 12.5),
  ('C=C(C)[C@@H]1CCC(C)=C[C@H]1c1c(OCCCCN2CCSCC2)cc(CCCCC)cc1OCCCCN1CCSCC1', '>', 50),
  ('C=C(C)[C@@H]1CCC(C)=C[C@H]1c1c(OCCCCN(CC)CC)cc(CCCCC)cc1OCCCCN(CC)CC', '=', 50),
  ('C=C(C)[C@@H]1CCC(C)=C[C@H]1c1c(OCCCCNC(=N)N)cc(CCCCC)cc1OCCCCNC(=N)N', '=', 1.56),
  ('C=C(C)[C@@H]1CCC(C)=C[C@H]1c1c(OCCCCNC)cc(CCCCC)cc1OCCCCNC', '=', 25),
  ('C=C(C)[C@@H]1CCC(C)=C[C@H]1c1c(O)cc(CCCCC)cc1O', '>', 50),
  ('C=C(C)[C@@H]1CCC(C)=C[C@H]1c1c(OCCCCCBr)cc(CCCCC)cc1OCCCCCBr', '>', 50),
  ('C=C(C)[C@@H]1CCC(C)=C[C@H]1c1c(OCCCCCCBr)cc(CCCCC)cc1OCCCCCCBr', '>', 50),
  ('C=C(C)[C@@H]1CCC(C)=C[C@H]1c1c(OCCCCN(C)C)cc(CCCCC)cc1OCCCCN(C)C', '=', 6.25),
  ('C=C(C)[C@@H]1CCC(C)=C[C@H]1c1c(OCCCBr)cc(CCCCC)cc1OCCCBr', '>', 50),
  ('C=C(C)[C@@H]1CCC(C)=C[C@H]1c1c(OCCCCN(CCCC)CCCC)cc(CCCCC)cc1OCCCCN(CCCC)CCCC', '>', 50),
  ('C=C(C)[C@@H]1CCC(C)=C[C@H]1c1c(OCCCCN2CCCC2)cc(CCCCC)cc1OCCCCN1CCCC1', '=', 12.5),
  ('C=C(C)[C@@H]1CCC(C)=C[C@H]1c1c(OCCCCN(CCO)CCO)cc(CCCCC)cc1OCCCCN(CCO)CCO', '=', 25),
  ('C=C(C)[C@@H]1CCC(C)=C[C@H]1c1c(OCCCCCN)cc(CCCCC)cc1OCCCCCN', '=', 6.25);
